- systemTested: Neuraminidase (Influenza A virus)
- methodNotes: Inhibition of recombinant Influenza A virus H5N1 neuraminidase
pIC50: −log10 of the molar value.
resultType: pIC50

compound=O=c1oc2cc(/C=C/c3ccc(O)c(O)c3)oc(=O)c2c2cc(O)c(O)cc12 systemtested="Neuraminidase (Influenza A virus)" resulttype=pIC50 testvalue=4.96
compound=O=c1cc(O)cc(/C=C/c2ccc(O)c(O)c2)o1 systemtested="Neuraminidase (Influenza A virus)" resulttype=pIC50 testvalue=4.77
compound=O=c1cc(O)cc([C@H]2c3c(cc(/C=C/c4ccc(O)c(O)c4)oc3=O)O[C@@H]2c2ccc(O)c(O)c2)o1 systemtested="Neuraminidase (Influenza A virus)" resulttype=pIC50 testvalue=4.91
compound=CC1=CC(=O)[C@H](c2c(O)cc(/C=C/c3ccc(O)c(O)c3)oc2=O)[C@@H](c2ccc(O)c(O)c2)O1 systemtested="Neuraminidase (Influenza A virus)" resulttype=pIC50 testvalue=4.66
compound="CC1=CC(=O)C2(O1)c1c(cc(/C=C/c3ccc(O)c(O)c3)oc1=O)OC2c1ccc(O)c(O)c1 (stereo not given)" systemtested="Neuraminidase (Influenza A virus)" resulttype=pIC50 testvalue=4.73

###

- systemTested: Neuraminidase (Influenza A virus)
- methodNotes: Ratio of hispidin IC50 to compound IC50 for recombinant Influenza A virus H1N1 neuraminidase
resultType: Ratio IC50

molecule=CC1=CC(=O)[C@H](c2c(O)cc(/C=C/c3ccc(O)c(O)c3)oc2=O)[C@@H](c2ccc(O)c(O)c2)O1 resulttype="Ratio IC50" testvalue=3.6
molecule=O=c1oc2cc(/C=C/c3ccc(O)c(O)c3)oc(=O)c2c2cc(O)c(O)cc12 resulttype="Ratio IC50" testvalue=5.8
molecule=O=c1cc(O)cc([C@H]2c3c(cc(/C=C/c4ccc(O)c(O)c4)oc3=O)O[C@@H]2c2ccc(O)c(O)c2)o1 resulttype="Ratio IC50" testvalue=2.2
molecule="CC1=CC(=O)C2(O1)c1c(cc(/C=C/c3ccc(O)c(O)c3)oc1=O)OC2c1ccc(O)c(O)c1 (centres undefined)" resulttype="Ratio IC50" testvalue=2.5

###

Entries and their pIC50 values follow.
- systemTested: Neuraminidase (Influenza A virus, UniProt B4URF0)
- methodNotes: Inhibition of recombinant Influenza A virus H3N2 neuraminidase
pIC50: −log10 of the molar value.
resultType: pIC50

compound=CC1=CC(=O)[C@H](c2c(O)cc(/C=C/c3ccc(O)c(O)c3)oc2=O)[C@@H](c2ccc(O)c(O)c2)O1 resulttype=pIC50 testvalue=4.68
compound=O=c1oc2cc(/C=C/c3ccc(O)c(O)c3)oc(=O)c2c2cc(O)c(O)cc12 resulttype=pIC50 testvalue=4.99
compound="CC1=CC(=O)C2(O1)c1c(cc(/C=C/c3ccc(O)c(O)c3)oc1=O)OC2c1ccc(O)c(O)c1 (stereo not given)" resulttype=pIC50 testvalue=4.73
compound=O=c1cc(O)cc(/C=C/c2ccc(O)c(O)c2)o1 resulttype=pIC50 testvalue=4.34
compound=O=c1cc(O)cc([C@H]2c3c(cc(/C=C/c4ccc(O)c(O)c4)oc3=O)O[C@@H]2c2ccc(O)c(O)c2)o1 resulttype=pIC50 testvalue=4.84

###

- methodNotes: Therapeutic index, ratio of CC50 for MDCK cells to IC50 for Influenza A virus H1N1
- Type: cell-based
- conditionDescription: dog, read-out: Ratio CC50/IC50
Listing of entries alongside the reported selectivity ratio.
resultType: selectivity ratio

compound="O=c1cc(O)cc([C@H]2c3c(cc(/C=C/c4ccc(O)c(O)c4)oc3=O)O[C@@H]2c2ccc(O)c(O)c2)o1 [HYPHOLOMINE B]" resulttype="selectivity ratio" resultoperator=> testvalue=1.4
compound="CC1=CC(=O)[C@H](c2c(O)cc(/C=C/c3ccc(O)c(O)c3)oc2=O)[C@@H](c2ccc(O)c(O)c2)O1 [DAVALLIALACTONE]" resulttype="selectivity ratio" resultoperator== testvalue=2.3
compound="O=c1cc(O)cc(/C=C/c2ccc(O)c(O)c2)o1 [HISPIDIN]" resulttype="selectivity ratio" resultoperator=> testvalue=1.7
compound="CC1=CC(=O)C2(O1)c1c(cc(/C=C/c3ccc(O)c(O)c3)oc1=O)OC2c1ccc(O)c(O)c1 (stereo not given) [INOSCAVIN A]" resulttype="selectivity ratio" resultoperator== testvalue=4.4
compound="O=c1oc2cc(/C=C/c3ccc(O)c(O)c3)oc(=O)c2c2cc(O)c(O)cc12 [PHELLIGRIDIN D]" resulttype="selectivity ratio" resultoperator=> testvalue=4.1
